cell growth values by entry
Tested on: OVCAR-3-derived ovarian cancer stem-like cells (spheroids)
assayDetails: cell growth relative to untreated control; higher = more growth (less inhibition)
studyConditions: 2.29 µM; 96 h
Form entry: value (%) — number only.

molecule: Nc1nc(N)c2cc(Sc3cccc(C(F)(F)F)c3)ccc2n1
reportedValue: 94.4

In the following, a different molecule is considered.
Value lookup for cell growth; key = CN(C)c1ccc(/C=c2/sc3nc(=O)c(-c4ccccc4NC(=O)C(F)(F)F)nn3c2=O)cc1
83.4

###

cell growth values by entry
System: OVCAR-3-derived ovarian cancer stem-like cells (spheroids)
assayDetails: cell growth relative to untreated control; higher = more growth (less inhibition)
studyConditions: 2.29 µM; 96 h
Form entry: value (%) — number only.

Record excerpt, results attached:
compound: CN(C)c1ccc2c(SCC(=O)OCC(=O)[C@@]3(O)CC[C@H]4[C@@H]5CCC6=CC(=O)C=C[C@]6(C)[C@H]5C(=O)C[C@@]43C)c3ccc(N(C)C)cc3nc2c1
cell growth, %: 59.1
//
compound: COC(=O)Nc1nc2ccc(Br)cc2[nH]1
cell growth, %: 107
//
compound: CCOC(=O)/C=C/c1c(C)[nH]c(=O)[nH]c1=O
cell growth, %: 91.2
//
compound: CN(C)[C@H]1CCC2[C@@H]3CCC4C[C@@H](NC(=O)NC(Cc5ccccc5)c5nccs5)CC[C@]4(C)C3CC[C@@]21C (stereo partly specified)
cell growth, %: 76.9

Value lookup for cell growth; key = COc1cc(/C=C(\OC(C)=O)c2ccc3c(c2)OCO3)cc(OC)c1OC
162

Sourced from the supplement of paper PMC3484114
